- System: PPARg:RXRa 270nM:90nM, anti-RXR (NR concentration 270 nM, RXRa partner concentration 90 nM)
- assay explanation: PBM binding z-score (relative to random genomic background probes); higher = stronger binding; sequences stand for … in GC…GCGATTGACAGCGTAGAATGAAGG
readout type: PBM binding z-score
Give bare numbers.

As a guide, the following entries are already answered.
* GGAACGAGGGGAAGTTGATAGCAGAGTTTGATGG | 0.29
* TCGAGTAGGTTAGTTGGGGCATTCAGCCAACATA | 0.635
* AGAACGAGGGCACGCTGAGTTGCTAGCAGAGTAG | 1.6
* CCTAGCAGGTCAGGGTCACTCAAGCATTTCGCTT | 4.22
* CCTAGTTGGTCAGGAGATCACACACCGGATATGA | 0.651

Field: next sequence
Requested field: PBM binding z-score. Item: TATACAGGGTCAAAGGCCAGAATACGAATGTCGA
7.19

The reported numbers originate from the supplement of paper PMC6555819.
